Sourced from PubChem BioAssay

# experimentalProtocol: FRG1 promoter luciferase signal modulators, primary screen, FRG1 inhibition for FSHD, cell-based, C2C12 myotubes, firefly/Renilla luciferase, luminescence (AID 1084)
# measurementSetup: higher = more signal, called active from +8 up or from −8 down
Outcome: true (1) for z-score of at least -0.07; false (0) for anything lower.

compound	group
CC(C)CON=C1C[C@@H](O)[C@@H](O)[C@@H]2[C@@H]3C(=O)N([C@@H](C)c4ccccc4)C(=O)[C@@H]3CC[C@@H]12	true (1)
O=C1C=C[C@@H](O)[C@@H]2[C@@H]3C(=O)N(Cc4ccc5c(c4)OCO5)C(=O)[C@@H]3CC[C@@H]12	true (1)
CO[C@@H]1COC(=O)[C@H](CCSC)NC(=O)CC=C[C@@H](C)COC(=O)[C@@H]2CCCN2C(=O)CC=C[C@H]1C	false (0)
O=C1C[C@@H](O)[C@@H](O)[C@@H]2[C@@H]3C(=O)N(Cc4ccccc4)C(=O)[C@@H]3CC[C@H]12	false (0)

# input Hi team, for O=C1CCCC=C1C(O)c1ccc([N+](=O)[O-])cc1 (stereo not drawn) , is the recorded z-score at or above -0.07?
# output true (1)

# input Hi team, for COC(=O)[C@H](C)NC(=O)CCC1CC(OC(=O)NCc2cccc3ccccc23)CC2(CCCC(COC(=O)NCc3cccc(C(F)(F)F)c3)O2)O1 (stereo partly drawn) , is the recorded z-score at or above -0.07?
# output false (0)

# input Hi team, for "O=C1[C@H]2CCn3c(=O)n(Cc4cc5c(cc4Cl)OCO5)c(=O)n3[C@H]2[C@H](O)[C@@H]2O[C@H]12" , is the recorded z-score at or above -0.07?
# output false (0)

====

Here, each record is paired with measured z-score data.
# experimentalProtocol: MM1S cell viability effects, profiling panel, calcein-AM fluorescence, 48 h, basal (AID 1165);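 further: viability of MM1S multiple myeloma cells under basal unstimulated conditions; test concentration not given here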
# measurementSetup: higher = more signal
// response body must contain only the number

COC(=O)[C@H](C)NC(=O)CC=C[C@@H](C)[C@@H]1C=C[C@H](O)[C@@H](CO)O1 0.203
CC(=O)OC[C@H]1O[C@H](CC=NO[C@@H](C)c2cn([C@H](CO)Cc3ccccc3)nn2)C=C[C@@H]1OC(C)=O 0.548
CC(=O)OC[C@H]1O[C@H](CC=NOCC[C@@H]2C=C[C@H](OC(C)=O)[C@@H](COC(C)=O)O2)C=C[C@@H]1OC(C)=O 0.0077

# input I have this molecule here, "COC(=O)CC=C[C@@H](C)[C@@H](C=NOC[C@@H](C)[C@H](OCc1ccccc1)C(C)C)NS(=O)(=O)c1ccc(C)cc1" , and I need its recorded z-score.
# output -0.726

====

# experimentalProtocol: basal 3T3-L1 adipocyte mitochondrial potential changes, profiling panel, cell-based, JC-1 fluorescence, 3T3-L1 adipocytes, 24 h, 100 nL compound (AID 1168); further: test concentration not given here
# measurementSetup: JC-1 mitochondrial fluorescence, higher = more signal, called active from +8 up or from −8 down
Classes are defined on z-score with ranges c1 = under -1, c2 = from -1 up to -0.6, c3 = -0.6 and over

Use the examples below as a reference point.
compound	group
C[C@H]1CC[C@H]2C(=O)N[C@H](Cc3ccccc3)C(=O)N2[C@@H]1c1ccccc1	c3
COc1ccc(O[C@H]2C=C[C@@H](c3ccccc3)O[C@@H]2CON=C(C)CCN2CCCc3nc(C)c(C)cc32)cc1	c2
CON=C[C@@H](OC)[C@H](C)C=CCC(=O)OC	c1
CCOC(=O)CCN1C(=O)[C@H]2[C@H]3[C@H](O)[C@H](O)CC(=NNC(=O)OCC)[C@H]3CC[C@H]2C1=O	c1
CCN1C(=O)[C@H]2[C@@H]3C(=CC[C@H]2C1=O)C(=O)[C@H]1O[C@H]1[C@H]3O	c3
CC(C)[C@@H](OCc1ccccc1)[C@H](C)C=NOC[C@@H](O)[C@H]1O[C@@H]2OC(C)(C)O[C@@H]2[C@H]1O	c1
CCOC(=O)CCN1C(=O)[C@H]2[C@@H]3C(=CC[C@H]2C1=O)C(=O)[C@H]1O[C@H]1[C@H]3O	c3
CC(C)=NOC[C@@H](O)[C@H]1O[C@@H]2OC(C)(C)O[C@@H]2[C@H]1O	c1

Switching to the query record.
# input Which category does the recorded z-score put CCOC(=O)[C@H](Cc1ccccc1)NC(=O)CCC1CC(OC(=O)NCc2ccc3c(c2)OCO3)CC2(CCCC(COC(=O)NCCOC)O2)O1 (stereo not given in full) in?
# output c2

====

# experimentalProtocol: P. aeruginosa biofilm formation inhibitors, primary screen, PAO1 strain, BacTiter-Glo luminescence, LB-PBS (AID 1144)
# measurementSetup: 12 h, higher = more signal
Outcome: Yes for z-score of at least -0.4; No for anything lower.

compound	group
C#CCCCON=C1[C@H]2CCn3c(=O)n([C@@H](CC)c4ccccc4)c(=O)n3[C@H]2[C@H](O)[C@@H]2O[C@H]12	Yes
CC(C)=NOC(C)CN1CCCCc2nc(C)c(C)cc21 (stereo not given)	Yes
CON(C)C(=O)c1nnc2c(n1)[nH]c1ccccc12	Yes
COC(=O)[C@@H]1CC[C@H](C)[C@@H](c2ccc(Br)cc2)N1C(=O)C(F)(F)F	No
CC#CCOCCC=C1c2ccccc2[C@@H](OC)[C@@H]1C	No
CC(C)=NO[C@@H](C)c1cn([C@H](CO)Cc2ccccc2)nn1	No
COC(=O)CC=C[C@@H](C)[C@@H](C=NOC[C@@H](C)[C@H](OCc1ccccc1)C(C)C)OC	Yes
OC[C@H]1O[C@H](C#Cc2ccccc2)C=C[C@@H]1O	Yes

# input Hi team, for "COCOc1ccc(Br)cc1C(=O)C=Cc1ccc2c(c1)OCO2" , is the recorded z-score at or above -0.4?
# output No

# input Hi team, for "COC(=O)CC=C[C@@H](C)[C@@H](C=NOC[C@@H](O)COCc1ccco1)NS(=O)(=O)c1ccc(C)cc1" , is the recorded z-score at or above -0.4?
# output Yes

====

# assayedSystem: Carbonic anhydrase 2 (Homo sapiens)
# experimentalProtocol: CAII small-molecule binders, profiling panel, biochemical, small-molecule microarray, Alexa647-labelled CAII (AID 1122)
# measurementSetup: CAII-A647 binding fluorescence, higher = more signal
Here, each record is paired with measured composite z-score data.
// response body must contain only the number

Please review the entries below; each comes with its answer.
compound	composite z-score
COc1ccc(COC(=O)NN=C2C[C@@H](O)[C@@H](O)[C@@H]3[C@@H]4C(=O)N(C5CCCCC5)C(=O)[C@@H]4CC[C@@H]23)cc1	-0.143
CC(CCN1CCc2nc(-c3ccccc3)c(-c3ccccc3)cc2C1)=NOC(C)CN1CCCc2nc(C)c(C)cc21 (stereo not drawn)	0.369
COC(=O)[C@H](Cc1ccccc1)NC(=O)[C@@H](C)CO	0.465
CO[C@H]1COC(=O)CC=C[C@H](C)[C@H](OC)COC(=O)[C@@H](C)NC(=O)CC=C[C@@H]1C	-0.54
C#CCCCON=C1[C@H]2CCn3c(=O)n([C@@H](CC)c4ccccc4)c(=O)n3[C@H]2[C@H](O)[C@@H]2O[C@H]12	0.59
C[C@]12CCC3c4ccc(OCC5CO5)cc4CCC3C1CC[C@@H]2O (stereo partly drawn)	0.646
CC(=O)OC[C@H]1O[C@H](CCON=C(C)CCN2CCCc3nc(C)c(C)cc32)C=C[C@@H]1OC(C)=O	0.416

# input I have this compound here, "COC(=O)CC=C[C@@H](C)[C@@H](C=NOC[C@@H](C)[C@H](OCc1ccccc1)C(C)C)NS(=O)(=O)c1ccc(C)cc1" , and I need its recorded composite z-score.
# output -0.351

====

Here, each record is paired with measured composite z-score data.
# experimentalProtocol: small-molecule microarray binders of probe aShh, primary screen, biochemical, biotinylated probe, 635/667 nm fluorescence (AID 1114);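 further: probe is biotin-labelled aShh protein from a stem cell growth factor screen; measures binding of labelled protein to compounds printed on the slide; score merges feature fluorescence at 667 nm with signal-to-noise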
# measurementSetup: higher = more signal

Please review the entries below; each comes with its answer.
compound	composite z-score
CCN1C(=O)[C@H]2[C@H]3[C@H](O)[C@H](O)CC(=NOC[C@@H](O)[C@H]4O[C@@H]5OC(C)(C)O[C@@H]5[C@H]4O)[C@@H]3CC[C@H]2C1=O	-0.0289
CCOC(=O)[C@H](Cc1ccccc1)NC(=O)CCC1CC(OC(=O)NCCc2ccc(F)cc2)CC2(CCCC(COC(=O)NCCOc3ccccc3)O2)O1 (stereo partly drawn)	-0.0709

# input I have this compound here, "CC(CCN1CCCCc2nc(C)c(C)cc21)=NOC[C@@H](O)[C@H]1O[C@@H]2OC(C)(C)O[C@@H]2[C@H]1O" , and I need its recorded composite z-score.
# output -0.0626

====

Here, each record is paired with measured composite z-score data.
# experimentalProtocol: binders from COS7 lysate, DM2A8 probe, primary screen, torsin A project, cell lysate, small-molecule microarray, fluorescence 635/667 (AID 1065)
# measurementSetup: higher = more signal, COS7 lysate expressing mutant human TOR1A
// response body must contain only the number

Please review the entries below; each comes with its answer.
compound	composite z-score
CC(C)CON=C1C[C@@H](O)[C@@H](O)[C@@H]2[C@@H]3C(=O)N(C(C)(C)C)C(=O)[C@@H]3CC[C@@H]12	2.77
CCN1C(=O)[C@H]2[C@H]3[C@H](O)[C@H](O)CC(=NOC[C@@H](O)[C@H]4O[C@@H]5OC(C)(C)O[C@@H]5[C@H]4O)[C@@H]3CC[C@H]2C1=O	-0.112
COc1ccc2c(c1)O[C@@H](c1cccc(C(F)(F)F)c1)[C@H](O)C2=O	-0.184

# input I have this compound here, "COc1ccc(COC(=O)NN=C2C[C@@H](O)[C@@H](O)[C@@H]3[C@@H]4C(=O)N([C@@H](C)c5ccccc5)C(=O)[C@@H]4CC[C@H]23)cc1" , and I need its recorded composite z-score.
# output 0.287

# input I have this compound here, CC(C)=NOC(C)CN1CCCc2nc(C)c(C)cc21 (configuration not stated) , and I need its recorded composite z-score.
# output -0.184

# input I have this compound here, "O=C1[C@H]2[C@H]3[C@H](O)[C@H](O)CC(=NOCc4ccccc4)[C@H]3CC[C@H]2C(=O)N1C1CCCCC1" , and I need its recorded composite z-score.
# output 0.357

# input I have this compound here, "C#CCCCON=C1[C@H]2CCn3c(=O)n([C@@H](CC)c4ccccc4)c(=O)n3[C@H]2[C@H](O)[C@@H]2O[C@H]12" , and I need its recorded composite z-score.
# output 0.152
